Values were extracted from patent US20260200919A1.

target: human recombinant kinase full-length AKT1 E17K (Homo sapiens, UniProt P31749, E17K); construct: Purified human recombinant kinase full-length AKT1 E17K was expressed in insect cells; experiment: AKT1 E17K kinase assay (TR-FRET, Lance); conditions: 0.6 nM AKT1 E17K, 50 nM Ulight-CREBtide, either 50 μM ATP or 2 mM ATP (not specified which), 60 min at RT
Sequence (P31749 whole entry E17K): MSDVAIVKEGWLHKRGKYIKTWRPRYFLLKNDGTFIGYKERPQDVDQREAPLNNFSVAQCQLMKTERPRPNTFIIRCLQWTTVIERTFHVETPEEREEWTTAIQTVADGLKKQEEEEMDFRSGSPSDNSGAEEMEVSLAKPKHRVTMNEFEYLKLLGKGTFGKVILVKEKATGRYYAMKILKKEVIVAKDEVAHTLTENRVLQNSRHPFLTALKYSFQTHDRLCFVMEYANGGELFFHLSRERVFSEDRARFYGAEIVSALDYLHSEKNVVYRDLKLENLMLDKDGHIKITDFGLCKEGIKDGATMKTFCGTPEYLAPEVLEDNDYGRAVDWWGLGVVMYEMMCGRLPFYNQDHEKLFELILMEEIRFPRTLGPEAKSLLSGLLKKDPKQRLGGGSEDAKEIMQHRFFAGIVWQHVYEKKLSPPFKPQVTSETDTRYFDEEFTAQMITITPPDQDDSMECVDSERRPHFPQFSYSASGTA
The entries below come with measured IC50 values attached.
Reported Property: IC50

* CC(C)[C@@H](c1ccc(C(=O)O)cc1)N1CC(c2ccc(-n3c(-c4cccnc4N)nc4ccc(-c5ccccc5)nc43)cc2)C1 | 200 to 500 nM
* Cc1cc(C(=O)Nc2ccc(-n3c(-c4cccnc4N)nc4ccc(-c5ccccc5)nc43)cn2)ccc1C(=O)O | < 50 nM
* Cc1nc(NC(=O)c2cc(F)c(C(=O)O)cc2F)ccc1-n1c(-c2cccnc2N)nc2ccc(-c3ccccc3)nc21 | 50 to 200 nM
* COC(=O)CCc1cccc(C(=O)NCc2ccc(-n3c(-c4cccnc4N)nc4cc(-c5cccnc5)cnc43)cc2)c1 | > 500 nM
